We begin with a simple list: items and their reported GI50.
System: PSN1 cells (pancreas adenocarcinoma)
TEST METHOD NOTES: cells
RUN CONDITIONS: PSN1; 72 hours treatment; SRB
Please respond with the number in nM and leave the unit unwritten.

INSERT INTO assay_data (molecule, value_unit, measured_number) VALUES
  ('COc1c(C)cc2c(c1O)[C@@H]1[C@@H]3[C@@H]4SC[C@]5(N[C@H](C)Cc6c5[nH]c5ccccc65)C(=O)OC[C@@H](c5c6c(c(C)c(OC(C)=O)c54)OCO6)N3[C@@H](C#N)[C@H](C2)N1C [A, reference compound]', 'nM', 12.9),
  ('COc1ccc2[nH]c3c(c2c1)C[C@H](C(=O)O)N[C@]31CS[C@@H]2c3c(OC(C)=O)c(C)c4c(c3[C@H](COC1=O)N1[C@@H]2[C@H]2c3c(cc(C)c(OC)c3O)C[C@@H]([C@@H]1C#N)N2C)OCO4 [Compound 28-R, reference compound]', 'nM', 21.5),
  ('COc1c(C)cc2c(c1O)[C@@H]1[C@@H]3[C@@H]4SC[C@]5(N[C@@H](CO)Cc6c5oc5ccccc65)C(=O)OC[C@@H](c5c6c(c(C)c(OC(C)=O)c54)OCO6)N3[C@@H](C#N)[C@H](C2)N1C', 'nM', 0.654),
  ('COc1c(C)cc2c(c1O)[C@@H]1[C@@H]3[C@@H]4SC[C@]5(N[C@@H](CO)Cc6c5[nH]c5ccccc65)C(=O)OC[C@@H](c5c6c(c(C)c(OC(C)=O)c54)OCO6)N3[C@@H](C#N)[C@H](C2)N1C', 'nM', 0.39),
  ('COc1c(C)cc2c(c1O)[C@@H]1[C@@H]3[C@@H]4SC[C@]5(N[C@@H](C)Cc6c5[nH]c5ccccc65)C(=O)OC[C@@H](c5c6c(c(C)c(OC(C)=O)c54)OCO6)N3[C@@H](O)[C@H](C2)N1C', 'nM', 20.8);

Quick note, GI50 for COc1ccc2[nH]c3c(c2c1)C[C@H](CO)N[C@]31CS[C@@H]2c3c(OC(C)=O)c(C)c4c(c3[C@H](COC1=O)N1[C@@H]2[C@H]2c3c(cc(C)c(OC)c3O)C[C@@H]([C@@H]1C#N)N2C)OCO4 landed at 0.57

According to the records, this molecule COc1c(C)cc2c(c1O)[C@@H]1[C@@H]3[C@@H]4SC[C@]5(N[C@@H](CN)Cc6c5[nH]c5ccccc65)C(=O)OC[C@@H](c5c6c(c(C)c(OC(C)=O)c54)OCO6)N3[C@@H](C#N)[C@H](C2)N1C displays GI50 of 1.39

====

Test system: PSN1 cells (pancreas adenocarcinoma)
TEST METHOD NOTES: cells
RUN CONDITIONS: PSN1; 72 hours treatment; SRB
Measured GI50 accompanies every entry in the list below.
# output: number + unit

Memo: COc1ccc2[nH]c3c(c2c1)C[C@@H](CO)N[C@]31CS[C@@H]2c3c(OC(C)=O)c(C)c4c(c3[C@H](COC1=O)N1[C@@H]2[C@H]2c3c(cc(C)c(OC)c3O)C[C@@H]([C@@H]1C#N)N2C)OCO4 , reported GI50: 0.959 nM

The compound identified as COc1c(C)cc2c(c1O)[C@@H]1[C@@H]3[C@@H]4SC[C@]5(N[C@@H](C)Cc6c5[nH]c5ccccc65)C(=O)OC[C@@H](c5c6c(c(C)c(OC(C)=O)c54)OCO6)N3[C@@H](C#N)[C@H](C2)N1C [B, reference compound] registered its GI50 at 19.3 nM

====

Catalogue of compounds with associated Total diameter (tumor + leg)
System: HT1080 tumors
TEST METHOD NOTES: Human fibrosarcoma xenograft, total diameter (tumor + leg)
RUN CONDITIONS: Day 16
Report as a plain number; the unit mm is understood.

The reported HT1080 tumors Total diameter (tumor + leg) of COc1c(C)cc2c(c1O)[C@@H]1[C@@H]3[C@@H]4SC[C@]5(N[C@H](C)Cc6c5[nH]c5ccccc65)C(=O)OC[C@@H](c5c6c(c(C)c(OC(C)=O)c54)OCO6)N3[C@@H](O)[C@H](C2)N1C [Compound C] is 12.4

The value of Total diameter (tumor + leg) recorded for COc1c(C)cc2c(c1O)[C@@H]1[C@@H]3[C@@H]4SC[C@]5(N[C@H](CO)Cc6c5oc5ccccc65)C(=O)OC[C@@H](c5c6c(c(C)c(OC(C)=O)c54)OCO6)N3[C@@H](O)[C@H](C2)N1C [Compound 39-S] when tested on HT1080 tumors reads 6.8

Query COc1c(C)cc2c(c1O)[C@@H]1[C@@H]3[C@@H]4SC[C@]5(N[C@@H](C)Cc6c5[nH]c5ccccc65)C(=O)OC[C@@H](c5c6c(c(C)c(OC(C)=O)c54)OCO6)N3[C@@H](O)[C@H](C2)N1C [Compound D] on HT1080 tumors; Total diameter (tumor + leg) returned: 8.8
